Provide the reported GI50 of each item.
# Test system: NCI-H522
# Test Details: Growth inhibition of human NCI-H522 cells after 48 hrs by sulforhodamine B assay
# Type: functional
# Assay Conditions: NCI-H522, 48 h

What GI50 value was documented for this compound, COc1ccc(-c2cc(-c3cccn3C)c(C#N)c(=O)[nH]2)cc1OC ? > 100 µM

What GI50 value was documented for this compound, Cn1cccc1-c1cc(-c2ccccc2)[nH]c(=O)c1C#N ? > 100 µM

What GI50 value was documented for this compound, CC1CCCc2c1nc(N)c(C#N)c2-c1cccn1C (configuration not stated) ? 66.1 µM

What GI50 value was documented for this compound, CC1CCCc2c1[nH]c(=O)c(C#N)c2-c1cccn1C (configuration not stated) ? > 100 µM

What GI50 value was documented for this compound, COc1ccc(-c2cc(-c3cccn3C)c(C#N)c(N)n2)cc1OC ? 40.7 µM

What GI50 value was documented for this compound, Cn1cccc1-c1cc(-c2cccs2)nc(N)c1C#N ? > 100 µM

What GI50 value was documented for this compound, Cn1cccc1-c1cc(-c2cccs2)[nH]c(=O)c1C#N ? 25.7 µM

---

Provide the reported GI50 of each item.
# Test system: SR
# Test Details: Growth inhibition of human SR cells after 48 hrs by sulforhodamine B assay
# Assay type: functional

What GI50 value was documented for this compound, Cn1cccc1-c1cc(-c2cccs2)[nH]c(=O)c1C#N ? > 100 µM

What GI50 value was documented for this compound, CC1CCCc2c1[nH]c(=O)c(C#N)c2-c1cccn1C (stereo not drawn) ? > 100 µM

What GI50 value was documented for this compound, Cn1cccc1-c1cc(-c2ccccc2)[nH]c(=O)c1C#N ? > 100 µM
